study system: T1, human glucose-dependent insulinotropic polypeptide (GIP) receptor (human) (UniProt P48546)
T1 sequence (looked up): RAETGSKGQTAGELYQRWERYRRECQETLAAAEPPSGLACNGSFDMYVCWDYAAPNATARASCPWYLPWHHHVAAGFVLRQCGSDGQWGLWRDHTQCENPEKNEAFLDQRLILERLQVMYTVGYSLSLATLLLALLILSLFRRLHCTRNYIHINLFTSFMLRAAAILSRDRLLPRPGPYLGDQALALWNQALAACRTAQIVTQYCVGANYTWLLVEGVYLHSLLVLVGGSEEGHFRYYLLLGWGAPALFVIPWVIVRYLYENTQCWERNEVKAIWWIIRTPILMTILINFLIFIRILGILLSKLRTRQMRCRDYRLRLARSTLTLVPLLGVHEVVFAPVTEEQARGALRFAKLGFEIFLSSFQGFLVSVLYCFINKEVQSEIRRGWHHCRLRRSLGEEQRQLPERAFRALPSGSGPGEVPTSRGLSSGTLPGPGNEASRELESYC
procedure text: cell-based or functional assay
Hi, to clarify the labels: Yes covers cAMP EC50 from 0.02 nM upward, No covers anything below 0.02 nM.

binder	label value
YXEGTXTSDXSIXLDXIAQXEFIXXLIKGGPSSGAPPPSK (Y-Aib-EGT-αMeF(2F)-TSD-4Pal-SI-αMeL-LD-Orn-IAQ-Aib-EFI-(D-Glu)-αMeY-LIK((2-[2-(2-Amino-ethoxy)-ethoxy]-acetyl)2-CO-(CH2)12-CO2H)GGPSSGAPPPSK((2-[2-(2-Amino-ethoxy)-ethoxy]-acetyl)2-CO-(CH2)12-CO2H)-NH2) [Example 223]	Yes
YXEGTXTSDXXIXLDXIAQXKFIXXLIKGGPSSGAPPPS (Y-Aib-EGT-αMeF(2F)-TSD-4Pal-Aib-I-αMeL-LD-Orn-IAQ-Aib-K((2-[2-(2-Amino-ethoxy)-ethoxy]-acetyl)2-(γ-Glu)-(10-(4-carboxyphenoxy)decanoyl))FI-(D-Glu)-αMeY-LIK((2-[2-(2-Amino-ethoxy)-ethoxy]-acetyl)2-(γ-Glu)-(10-(4-carboxyphenoxy)decanoyl))GGPSSGAPPPS-NH2) [Example 247]	Yes
YXEGTXTSDYXIXLDXIAQXKFIXXLIKGGPSSGAPPPS (Y-Aib-EGT-αMeF(2F)-TSDY-Aib-I-αMeL-LD-Orn-IAQ-Aib-K((2-[2-(2-Amino-ethoxy)-ethoxy]-acetyl)2-(γ-Glu)-(10-(4-carboxyphenoxy)decanoyl))FI-(D-Glu)-αMeY-LIK((2-[2-(2-Amino-ethoxy)-ethoxy]-acetyl)2-(γ-Glu)-(10-(4-carboxyphenoxy)decanoyl))GGPSSGAPPPS-NH2) [Example 240]	Yes
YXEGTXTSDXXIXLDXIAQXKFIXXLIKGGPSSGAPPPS (Y-Aib-EGT-αMeF(2F)-TSD-4Pal-Aib-I-αMeL-LD-Orn-IAQ-Aib-K((2-[2-(2-Amino-ethoxy)-ethoxy]-acetyl)2-(γ-Glu)-CO-(CH2)12-CO2H)FI-(D-Glu)-αMeY-LIK((2-[2-(2-Amino-ethoxy)-ethoxy]-acetyl)2-(γ-Glu)-CO-(CH2)12-CO2H)GGPSSGAPPPS-NH2) [Example 220]	Yes
YXEGTXTSDYXIXLDXKAQXEFIXXLIKGGPSSGAPPPS (Y-Aib-EGT-αMeF(2F)-TSDY-Aib-I-αMeL-LD-Orn-K((2-[2-(2-Amino-ethoxy)-ethoxy]-acetyl)2-(γ-Glu)-CO-(CH2)12-CO2H)AQ-Aib-EFI-(D-Glu)-αMeY-LIK((2-[2-(2-Amino-ethoxy)-ethoxy]-acetyl)2-(γ-Glu)-CO-(CH2)12-CO2H)GGPSSGAPPPS-NH2) [Example 231]	No
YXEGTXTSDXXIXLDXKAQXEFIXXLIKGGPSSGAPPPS (Y-Aib-EGT-αMeF(2F)-TSD-4Pal-Aib-I-αMeL-LD-Orn-K((2-[2-(2-Amino-ethoxy)-ethoxy]-acetyl)2-(γ-Glu)-(10-(4-carboxyphenoxy)decanoyl))AQ-Aib-EFI-(D-Glu)-αMeY-LIK((2-[2-(2-Amino-ethoxy)-ethoxy]-acetyl)2-(γ-Glu)-(10-(4-carboxyphenoxy)decanoyl))GGPSSGAPPPS-NH2) [Example 244]	Yes
